# System Tested: histamine H1 receptor (Homo sapiens)
# Sequence (P35367 whole entry): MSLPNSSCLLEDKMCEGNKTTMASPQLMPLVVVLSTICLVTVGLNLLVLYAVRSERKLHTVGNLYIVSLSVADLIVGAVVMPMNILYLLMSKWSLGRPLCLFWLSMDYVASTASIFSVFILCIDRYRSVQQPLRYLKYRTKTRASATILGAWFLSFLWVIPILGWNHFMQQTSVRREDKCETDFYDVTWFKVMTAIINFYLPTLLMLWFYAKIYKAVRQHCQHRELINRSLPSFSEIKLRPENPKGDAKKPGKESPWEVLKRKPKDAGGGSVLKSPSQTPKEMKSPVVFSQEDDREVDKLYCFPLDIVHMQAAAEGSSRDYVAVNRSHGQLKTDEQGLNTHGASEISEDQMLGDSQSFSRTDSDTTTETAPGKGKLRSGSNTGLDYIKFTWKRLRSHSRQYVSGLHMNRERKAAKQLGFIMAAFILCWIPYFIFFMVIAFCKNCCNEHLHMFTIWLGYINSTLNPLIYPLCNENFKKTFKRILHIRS
# Protocol: Displacement of [3H]pyrilamine from human recombinant histamine H1 receptor at 1 uM after 60 mins by radiometric scintillation analysis relative to control
# Cond: probe [3H]pyrilamine

{"Compound Smiles": "C#CCN(C)Cc1ccc(OCCCCCN2CCN(c3cccc4c3ccn4S(=O)(=O)c3ccccc3)CC2)cc1", "inhibition at 1 h, 1 µM, %": 13}

* * *

# Protocol: Metabolic stability in rat liver microsomes assessed as intrinsic clearance at 10 uM incubated for 10 mins followed by NADPH regeneration system addition and measured after 60 mins by UPLC-MS analysis
# Type: ADME, Microsome
# Cond: time 70 min, read-out: CLH

{"Compound Smiles": "C#CCN(C)Cc1ccc(OCCCCCN2CCN(c3cccc4c3ccn4S(=O)(=O)c3ccccc3)CC2)cc1", "CLint scaled at 10 µM / mL/min/kg": 85}
